Source listed as patent EP4813463A2.

- Measured on: JAK1-JH2 domain (Homo sapiens, UniProt P23458)
- Construct: JAK1-JH2 domain or TYK2-JH2 domain enzyme in assay buffer
- Sequence (P23458 583-855 limits assumed): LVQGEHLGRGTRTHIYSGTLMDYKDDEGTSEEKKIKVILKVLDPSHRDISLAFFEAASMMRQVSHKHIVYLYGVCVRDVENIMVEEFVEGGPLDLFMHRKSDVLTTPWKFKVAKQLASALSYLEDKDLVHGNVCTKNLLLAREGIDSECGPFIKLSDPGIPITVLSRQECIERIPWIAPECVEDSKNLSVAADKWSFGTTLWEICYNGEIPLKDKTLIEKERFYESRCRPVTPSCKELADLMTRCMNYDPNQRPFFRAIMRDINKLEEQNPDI
- Assay summary: Binding activity test for JH2 domain of JAK1 (Tb-antibody/tracer FRET)
- Applied conditions: JH2 domain enzyme; 60 min at 25°C, then 4°C overnight; read-out: JAK1 JH2 Binding IC50
Labelling: IC50 reported below 10 nM becomes TRUE; at or above becomes FALSE.

Would you please look over these solved cases?
[2H]C([2H])([2H])NC(=O)c1nnc(NC(=O)C2CC2)cc1Nc1nn(C)c2ccc([C@H](OC)C(F)(F)F)c(OC)c12 [Example 51B]; TRUE
[2H]C([2H])([2H])NC(=O)c1nnc(NC(=O)C2CC23CC3)cc1Nc1cnn2ccc([C@H](O)C(F)(F)F)c(OC)c12 (single isomer, unassigned) [Example 82A]; TRUE
CCONC(=O)c1cnc(NC(=O)C2CC2)cc1Nc1nn(C)c2ccc(C(OC)C(F)(F)F)c(OC)c12 (stereo not shown); FALSE
[2H]C([2H])([2H])NC(=O)c1nnc(NC(=O)C2CC2)cc1Nc1cccc(-c2ncn(C)n2)c1C(C)O (stereo not shown); FALSE
[2H]C([2H])([2H])NC(=O)c1nnc(NC(=O)C2CC2)cc1Nc1ncn2cccc2c1OC [Example 198, reference compound]; FALSE

Does this molecule meet the criterion IC50 < 10 nM? `CNC(=O)c1cnc(NC(=O)C2CC2)cc1Nc1nn(C)c2cccc(OC)c12`
FALSE

Threshold test, IC50 < 10 nM: `COC(=O)c1cnc(NC(=O)C2CC2)cc1Nc1cnn2ccc([C@H](O)C(F)(F)F)c(OC)c12`
FALSE
